method.summary: Cytotoxicity assay (Cell Counting Kit-8) after 1 min exposure
Format: cell-based, human
cond: human; read-out: Cell viability
Assignment: determine reported viability at 4 h for the given compounds.
Give bare numbers, in %.

                                   compound  reported_endpoint  unit_of_measurement  observed_value
0  CC[n+]1c(-c2ccccc2)c2cc(N)ccc2c2ccc(N)cc21 [EtBr, ethidium bromide]   viability at 4 h                    %            74.7

Here's the next entry for you.
The measured viability at 4 h associated with O=[N+]([O-])c1cc[n+]([O-])c2ccccc12 [4-NQO, 4-nitroquinoline 1-oxide] reads 114

====

method.summary: Cytotoxicity assay (Cell Counting Kit-8) after 1 min exposure
Assay type: cell-based, human
cond: human
reported.endpoint: viability at 6 h
Please answer using the number first and the unit second.

The measured viability at 6 h associated with COS(C)(=O)=O [MMS, methyl methanesulfonate] reads 108%

====

method.summary: Cytotoxicity assay (Cell Counting Kit-8) after 1 min exposure
Assay type: cell-based, human
cond: human
reported.endpoint: viability at 24 h (%)
Give bare numbers, in %.

The measured viability at 24 h associated with COS(C)(=O)=O [MMS, methyl methanesulfonate] reads 108

====

method.summary: Cytotoxicity assay (Cell Counting Kit-8) after 1 min exposure
Format: cell-based, human
cond: human
reported.endpoint: viability at 2 h
Please answer using the number first and the unit second.

The measured viability at 2 h associated with COS(C)(=O)=O [MMS, methyl methanesulfonate] reads 115%

====

method.summary: Cytotoxicity assay (Cell Counting Kit-8) after 1 min exposure
Type: cell-based, human
cond: human; read-out: Cell viability
reported.endpoint: viability at 2 h (%)
Give bare numbers, in %.

In [3]: df
Out[3]:
                                   molecule  reported_endpoint  observed_value
0  O=[N+]([O-])c1cc[n+]([O-])c2ccccc12 [4-NQO, 4-nitroquinoline 1-oxide]   viability at 2 h             139

Here's the next entry for you.
The measured viability at 2 h associated with CC[n+]1c(-c2ccccc2)c2cc(N)ccc2c2ccc(N)cc21 [EtBr, ethidium bromide] reads 89.3

====

method.summary: Cytotoxicity assay (Cell Counting Kit-8) after 1 min exposure
Assay type: cell-based, human
cond: human; read-out: Cell viability
Assignment: determine reported viability at 24 h for the given compounds.
Give bare numbers, in %.

                                   compound  observed_value
0  CC[n+]1c(-c2ccccc2)c2cc(N)ccc2c2ccc(N)cc21 [EtBr, ethidium bromide]            39.1

Here's the next entry for you.
The measured viability at 24 h associated with O=[N+]([O-])c1cc[n+]([O-])c2ccccc12 [4-NQO, 4-nitroquinoline 1-oxide] reads 118
